Tested on: Staphylococcus sp.
Assay: In vitro antibacterial evaluation: minimum inhibitory concentration (MIC), broth dilution method
Format: cell-based
Details: broth dilution, 18 hours at 35° C.
Listed below: MIC Staphylococcus aureus (GC 4544) values for each entry.
recordedMetric: MIC Staphylococcus aureus (GC 4544) (µg/mL)

molecule: CCCCCCN=C1NCC(C(O)C2NC(=O)C(C(O)C3CNC(=N)N3)NC(=O)C(Cc3ccc(OC4OC(CO)C(OC5OC6COC7(OC6C(O)C5O)C5CC6CC(C5)CC7C6)C(O)C4O)cc3)NC(=O)C(C(C)c3ccccc3)NC(=O)CNC(=O)C(CO)NC2=O)N1C1OC(CO)C(O)C(O)C1O (stereo not shown) [Example 84]
uom: µg/mL
valueOperator: =
experimentalResult: 8
--
molecule: CN=C1N(C)CC(C(O)C2NC(=O)C(Cc3ccc(OC4OC(CO)C(OC5OC6COC7(OC6C(O)C5O)C5CC6CC(C5)CC7C6)C(O)C4O)cc3)NC(=O)C(C(C)c3ccccc3)NC(=O)CNC(=O)C(CO)NC(=O)C(C(O)C3CN(C)C(=NC)N3C3OC(CO)C(O)C(O)C3O)NC2=O)N1C (stereo not shown) [Example 81]
uom: µg/mL
valueOperator: >
experimentalResult: 128
--
molecule: CC(c1ccccc1)C1NC(=O)CNC(=O)C(CO)NC(=O)C(C(O)C2CNC(=N)N2C2OC(CO)C(O)C(O)C2O)NC(=O)C(C(O)C2CNC(=N)N2)NC(=O)C(Cc2ccc(OC3OC(CO)C(OC4OC(COC(=O)C(c5ccccc5)c5ccccc5)C(O)C(O)C4O)C(O)C3O)cc2)NC1=O (stereo not shown) [Example 96c]
uom: µg/mL
valueOperator: =
experimentalResult: 1

---

Tested on: Escherichia coli
Experiment: In vitro antibacterial evaluation: minimum inhibitory concentration (MIC), broth dilution method
Assay type: cell-based
Settings: Escherichia coli (ATCC 25922); 18 hours at 35° C.
Listed below: MIC Escherichia coli (ATCC 25922) values for each entry.
recordedMetric: MIC Escherichia coli (ATCC 25922) (µg/mL)

compound: COc1ccc2cc(COC3C(CO)OC(OC4C(CO)OC(Oc5ccc(CC6NC(=O)C(C(C)c7ccccc7)NC(=O)CNC(=O)C(CO)NC(=O)C(C(O)C7CNC(=N)N7C7OC(CO)C(O)C(O)C7O)NC(=O)C(C(O)C7CNC(=N)N7)NC6=O)cc5)C(O)C4O)C(O)C3O)ccc2c1 (stereo not shown) [Example 230a]
targetOfAssay: Escherichia coli
uom: µg/mL
experimentalResult: 32

compound: CC(c1ccccc1)C1NC(=O)CNC(=O)C(CO)NC(=O)C(C(O)C2CNC(=N)N2C2OC(CO)C(O)C(O)C2O)NC(=O)C(C(O)C2CNC(=N)N2)NC(=O)C(Cc2ccc(OC3OC(CO)C(OC4OC5COC6(OC5C(O)C4O)C4CCCC6CCC4)C(O)C3O)cc2)NC1=O (stereo not shown)
targetOfAssay: Escherichia coli
uom: µg/mL
experimentalResult: 32

compound: CC(c1ccccc1)C1NC(=O)CNC(=O)C(CO)NC(=O)C(C(O)C2CNC(=N)N2C2OC(CO)C(O)C(O)C2O)NC(=O)C(C(O)C2CNC(=N)N2)NC(=O)C(Cc2ccc(OC3OC(CO)C(OC4OC5COC(c6ccccc6)OC5C(O)C4O)C(O)C3O)c(I)c2)NC1=O (stereo not shown)
targetOfAssay: Escherichia coli
uom: µg/mL
experimentalResult: 64

compound: CC(c1ccccc1)C1NC(=O)CNC(=O)C(CO)NC(=O)C(CC2CNC(=N)N2C2OC(CO)C(O)C(O)C2O)NC(=O)C(CC2CNC(=N)N2)NC(=O)C(Cc2ccc(OC3OC(CO)C(OC4OC5COC6(OC5C(O)C4O)C4CC5CC(C4)CC6C5)C(O)C3O)cc2)NC1=O (stereo not shown)
targetOfAssay: Escherichia coli
uom: µg/mL
experimentalResult: 64
